- Target System: ERα (Homo sapiens)
- Sequence (P03372 whole entry): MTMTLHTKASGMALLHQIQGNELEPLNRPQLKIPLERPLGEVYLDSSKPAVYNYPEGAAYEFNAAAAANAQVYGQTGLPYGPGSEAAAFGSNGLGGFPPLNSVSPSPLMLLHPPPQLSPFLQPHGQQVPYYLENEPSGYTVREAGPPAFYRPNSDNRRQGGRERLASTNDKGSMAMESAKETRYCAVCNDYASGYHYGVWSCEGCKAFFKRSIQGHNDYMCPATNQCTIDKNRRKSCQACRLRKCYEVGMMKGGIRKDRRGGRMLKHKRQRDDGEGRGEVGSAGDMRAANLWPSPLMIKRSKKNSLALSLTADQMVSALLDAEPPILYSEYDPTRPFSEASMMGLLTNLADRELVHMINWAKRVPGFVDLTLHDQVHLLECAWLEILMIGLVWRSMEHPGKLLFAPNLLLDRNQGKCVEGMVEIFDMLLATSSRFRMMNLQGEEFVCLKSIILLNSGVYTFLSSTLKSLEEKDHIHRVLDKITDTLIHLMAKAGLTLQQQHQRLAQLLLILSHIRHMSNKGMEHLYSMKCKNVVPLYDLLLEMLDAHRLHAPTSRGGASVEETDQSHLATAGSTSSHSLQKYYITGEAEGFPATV
- Test Name: Degradation of ERα in T-47D cells (immunoblotting, 4 h)
- Assay type: cell-based
- Parameters: host or cells: T-47D
- Assay Conditions: 10nM compound
- Protocol: T-47D cells were inoculated into 6-well plates at a density of 3×10^5 cells/well and cultured at 37°C, 5% CO2 for 24 h. After the cells were attached to the wall, 1µL of the compound solution in dimethyl sulfoxide (final concentration 0.15-1000 nM) was added and continued to be cultured in the incubator with 5% CO2 at 37°C for 4 h. […]
Endpoint: Degradation rate (%) of ERα in T-47D cells

Molecule	Value
CN(C(=O)CN1CCC2(CC1)COc1c2ccc2c1CN(C1CCC(=O)NC1=O)C2=O)C1CC2(CCN(c3ccc([C@@H]4c5ccc(O)cc5CC[C@@H]4c4ccccc4)cc3)CC2)C1 (some centres unmarked) [H47]	82
O=C1CCC(N2Cc3c(ccc4c3OCC43CCN(C4CCN(C(=O)C5CCN(c6ccc(C7c8ccc(O)cc8CCC7c7ccccc7)cc6)CC5)C(C(=O)N5CCCCC5)C4)CC3)C2=O)C(=O)N1 (centres unmarked) [K31]	79
CN(C)C(=O)[C@H]1CC(N2CCC3(CC2)COc2c3ccc3c2CN(C2CCC(=O)NC2=O)C3=O)CCN1C1CC2(CCN(c3ccc([C@@H]4c5ccc(O)cc5CC[C@@H]4c4ccccc4)cc3)CC2)C1 (some centres unmarked) [K32]	90
O=C1CCC(N2Cc3c(ccc4c3OCC43CCN(C(=O)C45CCC(CN6CCN(c7ccc([C@@H]8c9ccc(O)cc9CC[C@@H]8c8ccccc8)cc7)CC6)(CC4)CC5)CC3)C2=O)C(=O)N1 (some centres unmarked) [G23]	62
O=C1CCC(N2Cc3c(ccc4c3OCC43CCN(C(=O)C4CCC(CN5CCN(c6ccc(C7c8ccc(O)cc8CCC7c7ccccc7)cc6)CC5)CC4)CC3)C2=O)C(=O)N1 (centres unmarked) [G16]	81
O=C1CCC(N2Cc3c(ccc4c3OCC43CCN(C4CN(C5CCN(c6ccc([C@@H]7c8ccc(O)cc8CC[C@@H]7c7ccccc7)cc6)CC5)C4)CC3)C2=O)C(=O)N1 (some centres unmarked) [A58]	71
O=C1CCC(N2Cc3c(ccc4c3OCC43CCN(C4CCC5(CC4)CN(c4ccc([C@@H]6c7ccc(O)cc7CC[C@@H]6c6ccccc6)cc4)C5)CC3)C2=O)C(=O)N1 (some centres unmarked) [L11]	69
O=C1CCC(N2Cc3cc4c(cc3C2=O)OCC2(CCN(C3CC5(CCN(c6ccc(C7c8ccc(O)cc8CCC7c7ccccc7)cc6)CC5)C3)CC2)O4)C(=O)N1 (centres unmarked) [M7]	56
O=C1CCC(N2Cc3c(ccc4c3OCC43CCN(C4CC5CCC(C4)N5C(=O)C4CCN(c5ccc([C@@H]6c7ccc(O)cc7CC[C@@H]6c6ccccc6)cc5)CC4)CC3)C2=O)C(=O)N1 (some centres unmarked) [G10]	85
O=C1CCC(N2Cc3ccc4c(c3C2=O)OCC42CCN(C(=O)CN3CCC4(CCN(c5ccc([C@@H]6c7ccc(O)cc7CC[C@@H]6c6ccccc6)cc5)CC4)C3)CC2)C(=O)N1 (some centres unmarked) [A92]	66
CN(CC(=O)N1CCC2(CC1)COc1c2ccc2c1CN(C1CCC(=O)NC1=O)C2=O)C1CCC2(CC1)CN(c1ccc([C@@H]3c4ccc(O)cc4CC[C@@H]3c3ccccc3)cc1)C2 (some centres unmarked) [H52]	74
